- Tested on: B. fragilis NCTC 9344
- protocol text: Screening panel of Bacteroides fragilis, MIC and MBC, strain C
- Type: cell-based
- measurement conditions: Bacteroides fragilis, NCTC9344, 48 h, less than 5 colonies (99.9% reduction) after 48 hours, read-out: Minimum Bactericidal Concentration (MBC)
// reported MBC for each item listed

compound: CC1(C)CN=C2C(c3ccccc3)=[N+]([O-])c3cc(C(F)(F)F)ccc3N2C1 [Example 1]
target of assay: B. fragilis NCTC 9344
unit info: µg/mL
modifier: =
MBC: 3.1
//
compound: Cc1ccc(C2=[N+]([O-])c3cc(C(F)(F)F)ccc3N3CC(C)(C)CN=C23)cc1 [Example 3]
target of assay: B. fragilis NCTC 9344
unit info: µg/mL
modifier: =
MBC: 3.1
//
compound: CC1(C)CN=C2C(c3ccccc3)=[N+]([O-])c3cccc(F)c3N2C1 [Example 5]
target of assay: B. fragilis NCTC 9344
unit info: µg/mL
modifier: <
MBC: 0.8
//
compound: CC1(C)CN=C2C(c3ccccc3)=[N+]([O-])c3ccc(F)cc3N2C1 [Example 2]
target of assay: B. fragilis NCTC 9344
unit info: µg/mL
modifier: =
MBC: 1.5
//
compound: Cc1ncc([N+](=O)[O-])n1CCO [Metronidazole, reference compound]
target of assay: B. fragilis NCTC 9344
unit info: µg/mL
modifier: =
MBC: 1.5
//
compound: CCC1(C)CN=C2C(c3ccc(C)cc3)=[N+]([O-])c3cc(C(F)(F)F)ccc3N2C1 (stereo not shown) [Example 6]
target of assay: B. fragilis NCTC 9344
unit info: µg/mL
modifier: =
MBC: 3.1
//
compound: CCC1(C)CN=C2C(c3ccccc3)=[N+]([O-])c3cc(C(F)(F)F)ccc3N2C1 (stereo not shown) [Example 4]
target of assay: B. fragilis NCTC 9344
unit info: µg/mL
modifier: <
MBC: 0.8
